# study.system: ArcD1 (Lactococcus cremoris, UniProt A2RNI5)
# Construct: plasmid pNZarcD1, nisin-inducible
# Sequence (A2RNI5 1-526): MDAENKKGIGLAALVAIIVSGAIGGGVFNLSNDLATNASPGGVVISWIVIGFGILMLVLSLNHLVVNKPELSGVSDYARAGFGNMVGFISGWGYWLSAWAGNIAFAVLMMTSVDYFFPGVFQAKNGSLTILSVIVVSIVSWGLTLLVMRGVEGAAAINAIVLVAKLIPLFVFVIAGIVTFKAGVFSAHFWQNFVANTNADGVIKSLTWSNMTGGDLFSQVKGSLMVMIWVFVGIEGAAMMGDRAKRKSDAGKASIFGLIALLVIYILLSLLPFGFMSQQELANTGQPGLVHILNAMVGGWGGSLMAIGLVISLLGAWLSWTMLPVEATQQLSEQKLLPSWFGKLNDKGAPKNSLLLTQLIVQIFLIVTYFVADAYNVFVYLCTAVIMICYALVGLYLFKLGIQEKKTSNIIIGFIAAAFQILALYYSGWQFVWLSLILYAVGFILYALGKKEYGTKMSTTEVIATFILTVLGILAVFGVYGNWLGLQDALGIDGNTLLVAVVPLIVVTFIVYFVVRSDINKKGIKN
# method: inhibition of […]L-ornithine uptake in resting cells
# assay.conditions: read-out: ArcD1 / KI ^b (μm)
metric.name: Ki (µM)
One number for each entry, in µM.

Request: Return Ki (reported value) for this molecule: "NC(=O)NCCC[C@H](N)C(=O)O"
Response: 529

Sourced from paper PMC5300872
